Cited source: patent EP1285920A1

Test system: HCT116 carcinoma
Conditions: iv, 1440 h
Classify: TRUE when Mean Score is strictly less than 9; FALSE when Mean Score is not.

Reference set (3 entries):
COMPOUND_STRING	ASSAYED_SYSTEM	GROUP_LABEL
CCC(=O)O[C@H]1C(=O)[C@@]2(C)[C@H]([C@H](OC(=O)c3ccccc3)[C@]3(O)C[C@H](OC(=O)[C@H](O)[C@@H](NC(=O)c4ccccc4)c4ccco4)C(C)=C1C3(C)C)[C@]1(OC(C)=O)CO[C@@H]1C[C@@H]2O	HCT116 carcinoma	TRUE
CCC(=O)O[C@H]1C(=O)[C@@]2(C)[C@H]([C@H](OC(=O)c3ccccc3)[C@]3(O)C[C@H](OC(=O)[C@H](O)[C@@H](NC(=O)c4ccccc4)c4ccoc4)C(C)=C1C3(C)C)[C@]1(OC(C)=O)CO[C@@H]1C[C@@H]2O	HCT116 carcinoma	TRUE
CCCC(=O)O[C@H]1C(=O)[C@@]2(C)[C@H]([C@H](OC(=O)c3ccccc3)[C@]3(O)C[C@H](OC(=O)[C@H](O)[C@@H](NC(=O)OC(C)(C)C)c4ccco4)C(C)=C1C3(C)C)[C@]1(OC(C)=O)CO[C@@H]1C[C@@H]2O	HCT116 carcinoma	TRUE

Just wondering, is Mean Score of CCCC(=O)O[C@H]1C(=O)[C@@]2(C)[C@H]([C@H](OC(=O)c3ccccc3)[C@]3(O)C[C@H](OC(=O)[C@H](O)[C@@H](NC(=O)OC(C)(C)C)c4cccs4)C(C)=C1C3(C)C)[C@]1(OC(C)=O)CO[C@@H]1C[C@@H]2O below 9?
FALSE

Just wondering, is Mean Score of CCCC(=O)O[C@H]1C(=O)[C@@]2(C)[C@H]([C@H](OC(=O)c3ccccc3)[C@]3(O)C[C@H](OC(=O)[C@H](O)[C@@H](NC(=O)OC(C)(C)C)c4ccsc4)C(C)=C1C3(C)C)[C@]1(OC(C)=O)CO[C@@H]1C[C@@H]2O below 9?
FALSE

---

System: MX-1 carcinoma
Conditions: iv, 1440 h
Hi, to clarify the labels: 1 (yes) covers Complete Response from 5 upward, 0 (no) covers anything below 5.

Reference set (5 entries):
COMPOUND_STRING	GROUP_LABEL
CCC(=O)O[C@H]1C(=O)[C@@]2(C)[C@H]([C@H](OC(=O)c3ccccc3)[C@]3(O)C[C@H](OC(=O)[C@H](O)[C@@H](NC(=O)c4ccccc4)c4ccoc4)C(C)=C1C3(C)C)[C@]1(OC(C)=O)CO[C@@H]1C[C@@H]2O	0 (no)
CCC(=O)O[C@H]1C(=O)[C@@]2(C)[C@H]([C@H](OC(=O)c3ccccc3)[C@]3(O)C[C@H](OC(=O)[C@H](O)[C@@H](NC(=O)c4ccccc4)c4ccco4)C(C)=C1C3(C)C)[C@]1(OC(C)=O)CO[C@@H]1C[C@@H]2O	0 (no)
CCCC(=O)O[C@H]1C(=O)[C@@]2(C)[C@H]([C@H](OC(=O)c3ccccc3)[C@]3(O)C[C@H](OC(=O)[C@H](O)[C@@H](NC(=O)OC(C)(C)C)c4ccco4)C(C)=C1C3(C)C)[C@]1(OC(C)=O)CO[C@@H]1C[C@@H]2O	1 (yes)
CCCC(=O)O[C@H]1C(=O)[C@@]2(C)[C@H]([C@H](OC(=O)c3ccccc3)[C@]3(O)C[C@H](OC(=O)[C@H](O)[C@@H](NC(=O)OC(C)(C)C)c4cccs4)C(C)=C1C3(C)C)[C@]1(OC(C)=O)CO[C@@H]1C[C@@H]2O	0 (no)
CCCC(=O)O[C@H]1C(=O)[C@@]2(C)[C@H]([C@H](OC(=O)c3ccccc3)[C@]3(O)C[C@H](OC(=O)[C@H](O)[C@H](C=C(C)C)NC(=O)OC(C)(C)C)C(C)=C1C3(C)C)[C@]1(OC(C)=O)CO[C@@H]1C[C@@H]2O	0 (no)

For the next question, use this compound.
Hi, just wondering whether CCCC(=O)O[C@H]1C(=O)[C@@]2(C)[C@H]([C@H](OC(=O)c3ccccc3)[C@]3(O)C[C@H](OC(=O)[C@H](O)[C@@H](NC(=O)OC(C)(C)C)c4ccsc4)C(C)=C1C3(C)C)[C@]1(OC(C)=O)CO[C@@H]1C[C@@H]2O shows Complete Response of 5 or higher.
1 (yes)

---

System: blood cell populations
Test: Effect of oral treatment on blood cell populations and body weight in the MX-1 study (Example 22)
Assay type: in vivo, nu/nu mice
Details: Day 4; single oral bolus Day 1; mg/kg: 0499 80, 0550 73, 0611 113, 0748 200
Listed here: items and their measured Neutrophils (K/µL).
Output spec: scalar in K/µL, unitless text.

Take a look at these entries with their results.
COMPOUND_STRING	Neutrophils (K/µL)
CCC(=O)O[C@H]1C(=O)[C@@]2(C)[C@H]([C@H](OC(=O)c3ccccc3)[C@]3(O)C[C@H](OC(=O)[C@H](O)[C@@H](NC(=O)OC(C)(C)C)c4ccccc4)C(C)=C1C3(C)C)[C@]1(OC(C)=O)CO[C@@H]1C[C@@H]2O	0.057
CCC(=O)O[C@H]1C(=O)[C@@]2(C)[C@H]([C@H](OC(=O)c3ccccc3)[C@]3(O)C[C@H](OC(=O)[C@H](O)[C@@H](NC(=O)OC(C)(C)C)c4cccs4)C(C)=C1C3(C)C)[C@]1(OC(C)=O)CO[C@@H]1C[C@@H]2O	0.037

What value of Neutrophils (K/µL) has been recorded for this entry: CCC(=O)O[C@H]1C(=O)[C@@]2(C)[C@H]([C@H](OC(=O)c3ccccc3)[C@]3(O)C[C@H](OC(=O)[C@H](O)[C@@H](NC(=O)c4ccccc4)c4ccccc4)C(C)=C1C3(C)C)[C@]1(OC(C)=O)CO[C@@H]1C[C@@H]2O
0.269
